The measurements presented in this section are drawn from patent US20240117334A1.

- TARGET OR TEST SYSTEM: T1, Plasma antichymotrypsin (ACT) (UniProt P01011 24-423)
- T1 construct: also called plasma ACT
- T1 sequence (looked up): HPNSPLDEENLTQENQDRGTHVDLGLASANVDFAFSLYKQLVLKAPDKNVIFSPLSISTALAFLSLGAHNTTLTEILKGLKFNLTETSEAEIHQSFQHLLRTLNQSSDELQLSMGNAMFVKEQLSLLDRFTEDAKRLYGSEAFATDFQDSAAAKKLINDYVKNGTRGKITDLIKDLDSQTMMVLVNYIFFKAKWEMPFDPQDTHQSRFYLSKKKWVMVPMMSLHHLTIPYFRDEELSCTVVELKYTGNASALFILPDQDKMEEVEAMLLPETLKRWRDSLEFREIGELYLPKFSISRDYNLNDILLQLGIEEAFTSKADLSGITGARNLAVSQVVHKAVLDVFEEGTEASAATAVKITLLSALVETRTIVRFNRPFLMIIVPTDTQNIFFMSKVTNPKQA
- ASSAY PROCEDURE: serpin inhibition of the protease
MEASUREMENT LABEL: kapp (M⁻¹ s⁻¹)
Please give a number only; it is taken to be in M⁻¹ s⁻¹.

BINDER	VALUE MEASURED
chymase C22S/K40L/F41H/L99N/F173Y/S218L/A226R (enzyme) IIGGTESKPHSRPYMAYLEIVTSNGPSLHCGGFLIRRNFVLTAAHCAGRSITVTLGAHNITEEEDTWQKLEVIKQFRHPKYNTSTNHHDIMLLKLKEKASLTLAVGTLPFPSQFNFVPPGRMCRVAGWGRTGVLKPGSDTLQEVKLRLMDPQACSHYRDFDHNLQLCVGNPRKTKSAFKGDSGGPLLCAGVAQGIVSYGRLDAKPPRVFTRISHYRPWINQILQAN	193

Next binder, kapp to be filled in.
Give its kapp value. Item: chymase C22S/K40L/F41K/L99N/F173Y/S218L/A226R (enzyme) IIGGTESKPHSRPYMAYLEIVTSNGPSLKCGGFLIRRNFVLTAAHCAGRSITVTLGAHNITEEEDTWQKLEVIKQFRHPKYNTSTNHHDIMLLKLKEKASLTLAVGTLPFPSQFNFVPPGRMCRVAGWGRTGVLKPGSDTLQEVKLRLMDPQACSHYRDFDHNLQLCVGNPRKTKSAFKGDSGGPLLCAGVAQGIVSYGRLDAKPPRVFTRISHYRPWINQILQAN
197
